Test system: HL-60
Test: Cytotoxicity against human HL60 cells after 72 hrs by MTT assay
Type: functional, cell-based
Conditions: HL-60, 72 h
A collection of molecules and their measured pIC50
Note on pIC50: it is the negative log10 of concentration, concentration in mol/L.

Solved cases below.
MOLECULE | TARGET OR TEST SYSTEM | pIC50
CCOC(=O)C(C(C)=O)C(c1cccc([N+](=O)[O-])c1)c1c(O)c2ccccc2oc1=O (stereo unspecified) | HL-60 | 4.04
N[C@@H](Cc1ccc(N(CCCl)CCCl)cc1)C(=O)O | HL-60 | 4.94

Okay, now this molecule:
Q. Param item = CCOC(=O)C(C(C)=O)C(c1ccc(O)c(O)c1)c1c(O)c2ccccc2oc1=O (stereo unspecified) ; retrieve measured pIC50.
A. 4.45
